system: GLXMAW (Soybean, Williams); test: Postemergence herbicidal evaluation; format: in vivo, Glycine max, (L.) Merr. cv Williams; conditions: postemergence, rate 0.1250 kg/ha

compound | measured-target | GLXMAW herbicidal rating
CCOC(=O)CN1C(=O)C2(CC2)SC1=Nc1cc(-n2c(=O)cc(C(F)(F)F)n(C)c2=O)c(F)cc1Cl [Compound 15] | GLXMAW (Soybean, Williams) | 5.5
CC(C)OC(=O)CC1SC(=Nc2cc(-n3c(=O)cc(C(F)(F)F)n(C)c3=O)c(F)cc2Cl)N(C)C1=O (centres unmarked) [Compound 89] | GLXMAW (Soybean, Williams) | 9.0
C=CCN1C(=O)C(CC(=O)NS(C)(=O)=O)SC1=Nc1cc(-n2c(=O)cc(C(F)(F)F)n(C)c2=O)c(F)cc1Cl (centres unmarked) [Compound 96] | GLXMAW (Soybean, Williams) | 3.0
CCOC(=O)CN1C(=O)C(CC(=O)NOC)SC1=Nc1cc(-n2c(=O)cc(C(F)(F)F)n(C)c2=O)c(F)cc1Cl (centres unmarked) [Compound 83] | GLXMAW (Soybean, Williams) | 8.5
CCOC(=O)CN1C(=O)C(CC(=O)O)S/C1=N/c1cc(-n2c(=O)cc(C(F)(F)F)n(C)c2=O)c(F)cc1Cl (centres unmarked) [Compound 16] | GLXMAW (Soybean, Williams) | 9.0

---

Recorded Preemergence herbicidal rating GLXMAW values for a group of molecules are listed next.
system: GLXMAW (Soybean, Williams); test: Preemergence herbicidal evaluation; type: in vivo, Glycine max, (L.) Merr. cv Williams; conditions: 0.0313 kg/ha, rated 4-5 weeks after treatment

molecule | measured-target | Preemergence herbicidal rating GLXMAW
Cn1c(C(F)(F)F)cc(=O)n(-c2cc(N=C3SCC(=O)N3C3CCC3)c(Cl)cc2F)c1=O | GLXMAW (Soybean, Williams) | 0.0
CC(C)N1C(=O)CSC1=Nc1cc(-n2c(=O)cc(C(F)(F)F)n(C)c2=O)c(F)cc1Cl | GLXMAW (Soybean, Williams) | 2.0
CCOC(=O)CN1C(=O)C(C(=O)OC(C)(C)C)SC1=Nc1cc(-n2c(=O)cc(C(F)(F)F)n(C)c2=O)c(F)cc1Cl (stereo not shown) | GLXMAW (Soybean, Williams) | 0.0
CCN1C(=O)CSC1=Nc1cc(-n2c(=O)cc(C(F)(F)F)n(C)c2=O)c(F)cc1Cl | GLXMAW (Soybean, Williams) | 0.0

---

tested on: AMBEL (Ragweed, Common); assay: Postemergence herbicidal evaluation; format: in vivo, Ambrosia artemisifolia; details: postemergence, rate 0.0630 kg/ha
Each entry below carries its recorded AMBEL herbicidal rating.
metric: AMBEL herbicidal rating

compound | measured-target | reported-result
C[C@@H](C(=O)OC(C)(C)C)N1C(=O)CSC1=Nc1cc(-n2c(=O)cc(C(F)(F)F)n(C)c2=O)c(F)cc1Cl | AMBEL (Ragweed, Common) | 9.0
C=CCOC(=O)CC1SC(=Nc2cc(-n3c(=O)cc(C(F)(F)F)n(C)c3=O)c(F)cc2Cl)N(CC=C)C1=O (stereo not shown) | AMBEL (Ragweed, Common) | 9.0
C[C@H](C(=O)O)N1C(=O)CSC1=Nc1cc(-n2c(=O)cc(C(F)(F)F)n(C)c2=O)c(F)cc1Cl | AMBEL (Ragweed, Common) | 7.0
CC(C)C[C@@H](C(=O)O)N1C(=O)CSC1=Nc1cc(-n2c(=O)cc(C(F)(F)F)n(C)c2=O)c(F)cc1Cl | AMBEL (Ragweed, Common) | 9.0
CCOC(=O)CN1C(=O)C(Cc2ccccc2)SC1=Nc1cc(-n2c(=O)cc(C(F)(F)F)n(C)c2=O)c(F)cc1Cl (stereo not shown) | AMBEL (Ragweed, Common) | 9.0
C#CCOC(=O)CC1SC(=Nc2cc(-n3c(=O)cc(C(F)(F)F)n(C)c3=O)c(F)cc2Cl)N(CC=C)C1=O (stereo not shown) | AMBEL (Ragweed, Common) | 7.0
CCOC(=O)CN1C(=O)C(=Cc2ccccc2)SC1=Nc1cc(-n2c(=O)cc(C(F)(F)F)n(C)c2=O)c(F)cc1Cl | AMBEL (Ragweed, Common) | 7.0

---

Listed here are compounds together with their documented Postemergence herbicidal rating AMBEL.
tested on: AMBEL (Ragweed, Common); experiment: Postemergence herbicidal evaluation; format: in vivo, Ambrosia artemisifolia; details: Rate 0.0630 kg/ha
metric: Postemergence herbicidal rating AMBEL

compound | measured-target | reported-result
Cn1c(C(F)(F)F)cc(=O)n(-c2cc(N=C3NC(=O)CS3)c(Cl)cc2F)c1=O | AMBEL (Ragweed, Common) | 7.0
CCOC(=O)CN1C(=O)C(CC(=O)OC)S/C1=N/c1cc(-n2c(=O)cc(C(F)(F)F)n(C)c2=O)c(F)cc1Cl (stereo not shown) | AMBEL (Ragweed, Common) | 9.0
CCOC(=O)CN1C(=O)C(CC(N)=O)S/C1=N/c1cc(-n2c(=O)cc(C(F)(F)F)n(C)c2=O)c(F)cc1Cl (stereo not shown) | AMBEL (Ragweed, Common) | 9.0
CCOC(=O)CN1C(=O)C(CC(=O)O)SC1=Nc1cc(-n2c(=O)cc(C(F)(F)F)n(C)c2=O)c(Cl)cc1Cl (stereo not shown) | AMBEL (Ragweed, Common) | 9.0

---

Here the recorded ECHORC herbicidal effect rating is given for each entry.
Test system: ECHORC (Watergrass (Calif.))
Experiment: Preemergence weed control under flooded paddy conditions
Format: in vivo, Echinochloa oryzoides
Settings: 0.2500 kg/ha, rated 3-4 weeks after treatment
Description: Results of herbicide evaluation are expressed on a rating scale (0-9). The scale is based upon a visual observation of plant stand, vigor, malformation, size, chlorosis and overall plant appearance as compared with a control. Preemergence herbicidal activity under flooded paddy conditions is determined as follows: plant seeds or propagating organs are planted in the top 0.5 cm of silt loam soil in 32 oz. plastic containers with a diameter of 10.5 cm and no drainage holes. […]

compound | measured-target | ECHORC herbicidal effect rating
C=CCN1C(=O)C(CC(=O)OCCF)SC1=Nc1cc(-n2c(=O)cc(C(F)(F)F)n(C)c2=O)c(F)cc1Cl (stereo not shown) | ECHORC (Watergrass (Calif.)) | 9.0
CCOC(=O)CN1C(=O)C(CC(=O)NO)S/C1=N/c1cc(-n2c(=O)cc(C(F)(F)F)n(C)c2=O)c(F)cc1Cl (stereo not shown) | ECHORC (Watergrass (Calif.)) | 3.0
C=CCOC(=O)CC1SC(=Nc2cc(-n3c(=O)cc(C(F)(F)F)n(C)c3=O)c(F)cc2Cl)N(CC=C)C1=O (stereo not shown) | ECHORC (Watergrass (Calif.)) | 7.0
C#CCOC(=O)CC1SC(=Nc2cc(-n3c(=O)cc(C(F)(F)F)n(C)c3=O)c(F)cc2Cl)N(C)C1=O (stereo not shown) | ECHORC (Watergrass (Calif.)) | 3.0

---

Recorded Preemergence herbicidal rating SETVI, one value per entry.
tested on: SETVI (Foxtail, Green); assay: Preemergence herbicidal evaluation; type: in vivo, Setaria viridis; conditions: rate 0.0156 kg/ha; rated 4-5 weeks after treatment

molecule | Preemergence herbicidal rating SETVI
CC(C)OC(=O)CN1C(=O)CSC1=Nc1cc(-n2c(=O)cc(C(F)(F)F)n(C)c2=O)c(F)cc1Cl | 1.5
Cn1c(C(F)(F)F)cc(=O)n(-c2cc(N=C3NC(=O)CS3)c(Cl)cc2F)c1=O | 0.0
Cn1c(C(F)(F)F)cc(=O)n(-c2cc(N=C3SCC(=O)N3CC(=O)OC3CCCC3)c(Cl)cc2F)c1=O | 0.0
CCOC(=O)CN1C(=O)C(Cc2ccccc2OCC(=O)O)S/C1=N/c1cc(-n2c(=O)cc(C(F)(F)F)n(C)c2=O)c(F)cc1Cl (stereo not drawn) | 0.0
CCOC(=O)[C@H](Cc1ccccc1)N1C(=O)CSC1=Nc1cc(-n2c(=O)cc(C(F)(F)F)n(C)c2=O)c(F)cc1Cl | 0.0
Cn1c(C(F)(F)F)cc(=O)n(-c2cc(N=C3SCC(=O)N3CC(=O)OC(C)(C)C)c(Cl)cc2F)c1=O | 0.0

---

tested on: CASOB (Sicklepod); assay: Preemergence herbicidal evaluation; format: in vivo, Cassia obtusifolia; settings: rate 0.2500 kg/ha; rated 4-5 weeks after treatment; rating scale 0-9

entry-smiles | measured-target | Preemergence herbicidal rating CASOB
Cn1c(C(F)(F)F)cc(=O)n(-c2cc(N=C3SCC(=O)N3Cc3ccc(C(F)(F)F)cc3)c(Cl)cc2F)c1=O | CASOB (Sicklepod) | 3.0
Cn1c(C(F)(F)F)cc(=O)n(-c2cc(N=C3SCC(=O)N3Cc3ccncc3)c(Cl)cc2F)c1=O | CASOB (Sicklepod) | 9.0
Cn1c(C(F)(F)F)cc(=O)n(-c2cc(N=C3SCC(=O)N3Cc3ccccn3)c(Cl)cc2F)c1=O | CASOB (Sicklepod) | 2.0

Data origin, for the record: patent US20020137929A1
